test system: TK-10; assay: NCI tumour cell line growth inhibition, 48 h
Calls of active or inactive are those of the source. Rule as the data show it: active = GI50 up to about 1.1 µM and inactive = higher.

{"columns": ["molecule", "target or test system", "GI50"],
 "data": [
  ["BrC1(c2ccccc2)C[n+]2c(-c3ccccc3)cc(-c3ccccc3)cc2-c2ccccc21 (stereo not given)", "TK-10", "1.73 µM (inactive)"],
  ["CCCNC1=Nc2ccccc2N(Cc2ccccc2)CC1", "TK-10", "27.8 µM (inactive)"],
  ["CC(=O)OC1C2CCC1C1C2C2(Cl)C(Cl)=C(Cl)C1(Cl)C2(Cl)Cl (stereo not given)", "TK-10", "15.3 µM (inactive)"],
  ["COC(=O)CCc1ccc(CCC(=O)OC)cc1", "TK-10", "> 100 µM (inactive)"],
  ["O=c1c(C(c2ccc3ccccc3c2)c2c(O)oc3cc(O)ccc3c2=O)c(O)oc2cc(O)ccc12", "TK-10", "> 100 µM (inactive)"]
]}

###

test system: OVCAR-5; test: NCI tumour cell line growth inhibition, 48 h
Active and inactive are the calls of the source. No stated cut-off is given here; in the data, active = GI50 up to about 1.1 µM and inactive = higher. Residues, ends and D or L forms follow the SMILES beside them. *: point of attachment. Boc = CC(C)(C)OC(=O)*; OBn = c1ccc(CO*)cc1
property label: GI50

{"columns": ["molecule", "property label", "observed measurement"],
 "data": [
  ["CN(C(=O)OC(C)(C)C)[C@H]1CCCC[C@H]1N1CCCC1", "GI50", "> 100 µM (inactive)"],
  ["CC(C)(C)OC(=O)NC(Cc1ccc(OCc2ccccc2)cn1)C(=O)O (stereo not given)", "GI50", "> 100 µM (inactive)"],
  ["O=C1c2ccccc2-c2nc(-c3ccncc3)cc3c2c1nc1ccccc13", "GI50", "18.7 µM (inactive)"],
  ["C/C(=N\\NC(N)=O)C(CN1CCCCC1)C(c1ccccc1)c1c(O)c2ccccc2oc1=O (stereo not given)", "GI50", "> 100 µM (inactive)"],
  ["O=c1[nH]nc(NNc2ccccc2)c2nnn(C3CCCCC3)c12", "GI50", "> 100 µM (inactive)"],
  ["CCC(=O)c1ccc2[nH]c3c(C)c4c(O)cc(C)nc4c(C)c3c2c1", "GI50", "> 100 µM (inactive)"],
  ["O=C1Nc2ccccc2/C1=N/NC(=O)C(O)(c1ccccc1)c1ccccc1", "GI50", "17.2 µM (inactive)"],
  ["CNC(C)C(O)c1ccc2oc3cc(=O)c4ccccc4c-3nc2c1 (stereo not given)", "GI50", "32.5 µM (inactive)"],
  ["CCOC(=O)c1c(N)sc2c1CC(C)CC2 (stereo not given)", "GI50", "55.3 µM (inactive)"],
  ["Cc1c2c(C#N)nccc2c(C)c2c1c1ccccc1n2Cc1ccccc1", "GI50", "> 100 µM (inactive)"],
  ["O=C1C(Cl)N(c2c(Cl)cccc2Cl)C1c1c[nH]c2ccccc12 (stereo not given)", "GI50", "> 100 µM (inactive)"],
  ["CC(C)CC(NC(=O)OC(C)(C)C)C(=O)NC(CC(=O)OCc1ccccc1)C(=O)OCc1ccccc1 (stereo not drawn) (Boc-Leu-Asp(OBn)-OBn; configuration not given here)", "GI50", "> 100 µM (inactive)"],
  ["N=C(N)NS(=O)(=O)c1ccc(NC(=O)c2ccc3nc4ccccc4c(N)c3c2)cc1", "GI50", "> 100 µM (inactive)"],
  ["O=C1NC(N2CCCCC2)=N/C1=C\\c1ccc(Cl)cc1", "GI50", "> 100 µM (inactive)"],
  ["C=CCCCCCCCCCP(=O)(c1ccccc1)c1ccc2c(c1)OCCOCCOCCOCCO2 (stereo not given)", "GI50", "17.4 µM (inactive)"],
  ["COc1cc(C2c3[nH]c4ccc(F)cc4c3C[C@H]3COC(=O)N23)cc(OC)c1O (stereo not given in full)", "GI50", "18.8 µM (inactive)"],
  ["CCc1c[n+]2c(cc1C1=CN3c4ccccc4[C@]45CCN6C/C(=C/CO)[C@H](C[C@H]64)[C@@H]([C@@H]1O)[C@H]35)-c1[nH]c3ccccc3c1CC2", "GI50", "> 50 µM (inactive)"],
  ["COc1ccc(COC(=O)NNC(=O)C2CSC(c3ccccc3)N2C(C)=O)cc1 (stereo not given)", "GI50", "> 100 µM (inactive)"],
  ["O=CC1CCC=CC1NC(=O)OCc1ccccc1 (stereo not given)", "GI50", "> 100 µM (inactive)"],
  ["N#C/C(=C\\c1cc(Br)c(O)c(Br)c1)c1cccnc1", "GI50", "41.6 µM (inactive)"]
]}
